The origin of these recorded values is paper PMC6271756.

System: HepG2
Assay: Cell proliferation assay (CCK8), HepG2
Type: cell-based
Details: Homo sapiens, HepG2; cells incubated with compounds for 24 h; CCK8
Metric Name: IC50 (µM)

For O=C(/C=C/c1ccc2c(c1)OCCCCO2)Nc1ccccc1[N+](=O)[O-] [Compound D2] the molecule record lists IC50 as 9.4

Record O=C(/C=C/c1ccc2c(c1)OCCCCO2)Nc1cccc(F)c1 , field IC50: 7.9

Per the records, this molecule ( COc1cc(NC(=O)/C=C/c2ccc3c(c2)OCCCCO3)cc(OC)c1 ) has IC50 equal to 11.1

(a) O=C(/C=C/c1ccc2c(c1)OCCCCO2)NCc1ccccc1F
(b) O=C(/C=C/c1ccc2c(c1)OCCCCO2)Nc1ccccc1Cl
Returns: the label, a or b , whose recorded IC50 is the lower number. Write the label of whichever entry you select.
a

* * *

Biological target: EGFR (Homo sapiens, UniProt P00533)
Construct: EGFR cytoplasmic domain (EGFR-CD, amino acids 645–1186); (His)6 (N); made in house; host or cells: Sf-9 insect cells (baculovirus)
Sequence (P00533 669-1210): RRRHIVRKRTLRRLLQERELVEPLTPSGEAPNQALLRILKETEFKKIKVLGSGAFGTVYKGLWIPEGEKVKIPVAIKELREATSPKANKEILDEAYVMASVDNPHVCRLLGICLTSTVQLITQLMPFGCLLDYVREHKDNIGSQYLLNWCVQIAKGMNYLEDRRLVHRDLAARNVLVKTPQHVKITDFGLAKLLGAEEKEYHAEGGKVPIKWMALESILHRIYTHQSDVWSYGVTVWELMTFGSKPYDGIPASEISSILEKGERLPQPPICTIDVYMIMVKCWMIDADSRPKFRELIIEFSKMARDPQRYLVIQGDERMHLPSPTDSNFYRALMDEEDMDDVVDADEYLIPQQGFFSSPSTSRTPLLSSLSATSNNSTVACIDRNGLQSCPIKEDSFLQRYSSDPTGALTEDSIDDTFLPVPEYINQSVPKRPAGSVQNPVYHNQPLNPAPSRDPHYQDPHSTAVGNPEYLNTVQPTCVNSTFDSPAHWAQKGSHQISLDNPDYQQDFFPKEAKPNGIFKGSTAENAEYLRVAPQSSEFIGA
Assay: EGFR kinase autophosphorylation assay (DELFIA/Time Resolved Fluorometry)
Assay type: biochemical
Conditions: enzyme incubated with compounds for 70 min
Metric Name: IC50 (µM)

# example entries with known answers
The reported IC50 of the compound O=C(/C=C/c1ccc2c(c1)OCCCCO2)Nc1ccc([N+](=O)[O-])cc1 [Compound D1] was 7.25

// field: IC50; key: O=C(/C=C/c1ccc2c(c1)OCCCCO2)Nc1ccccc1Cl ; value = 8.97

(A) COc1cccc(NC(=O)/C=C/c2ccc3c(c2)OCCCCO3)c1
(B) O=C(/C=C/c1ccc2c(c1)OCCCCO2)Nc1cccc(Cl)c1
(C) COc1ccc(NC(=O)/C=C/c2ccc3c(c2)OCCCCO3)cc1
Sort low-to-high on IC50, please. Output spec: a listing of the labels in the requested order.
C, A, B

* * *

Test system: A431
Experiment: Cell proliferation assay (CCK8), A431
Type: cell-based
Settings: Homo sapiens, A-431, cells incubated with compounds for 24 h
Metric Name: IC50 (µM)

Entry under test: O=C(/C=C/c1ccc2c(c1)OCCCCO2)Nc1ccccc1Cl . Its IC50 was 18.9

Value of IC50 reported for the compound O=C(/C=C/c1ccc2c(c1)OCCCCO2)Nc1ccccc1[N+](=O)[O-] [Compound D2] is 24.7

Entry C#Cc1cccc(Nc2ncnc3cc(OCCOC)c(OCCOC)cc23)c1 [Erlotinib, reference compound] , IC50 reported as 0.04
